experiment: inhibitors of PMA/ionomycin-induced NF-kB reporter, 697 cells, primary screen, B-cell NF-kB inhibitor project, cell-based, luminescence, uHTS (AID 435022); conditions: 697 B-cell NF-kB luciferase reporter, 16 h, at 4 µM
Hit rate of the full screen: of about 330,000 compounds, about 1,100 (0.33%) were called active. No stated cut-off is given here; in the data, active means inhibition above about 35%; inactive means the rest. The full list was thinned out, with actives kept by preference.
Classes used: t for active, f for inactive

INSERT INTO measurements (compound, grouplabel) VALUES
  ('CCN(CCCNC(=O)c1ccc2c(c1)NC(=O)CN2C)c1cccc(C)c1', 'f'),
  ('CC(=O)N(OCc1ccc(OC(C)C)c(Cl)c1)C(C)=O', 'f'),
  ('C=CCN1C(=NC(=O)COc2ccccc2)SC2CS(=O)(=O)CC21 (centres undefined)', 'f'),
  ('CCOC(=O)C1=C(O)/C(=C/c2cc(C)n(-c3ccccc3)c2C)N=C1C', 'f'),
  ('O=C(O)c1n[nH]nc1-c1ccccc1', 'f'),
  ('CCOc1ccc(C(=O)Nc2cc(Cl)ccc2-n2cncn2)cc1OC', 'f'),
  ('CC(C)(C)c1ccc(OC2=CS(=O)(=O)c3ccccc32)cc1', 'f'),
  ('COc1ccc(CNC(=O)CNC(=O)c2sc3ccccc3c2Cl)cc1OC', 't'),
  ('Cc1ccccc1C(=O)NNC(=O)CN1C(=O)c2ccccc2C1=O', 'f'),
  ('C[C@@H]1C[C@@H]2O[C@H]2/C=C\C=C\C(=O)Cc2c(Cl)c(O)cc(O)c2C(=O)O1', 't'),
  ('CCOc1ccc(C(c2c(C)[nH][nH]c2=O)c2c(C)[nH][nH]c2=O)cc1OCC', 't'),
  ('CCCCCCCCCCOC(=O)C[N+](C)(C)CC1CCCCC1O (centres undefined)', 'f'),
  ('N=c1n(CCc2ccccc2)c2ccccc2n1Cc1ccccc1F', 'f'),
  ('CCCC(C)NC(=O)C1CCN(C(=O)C2CC(=O)N(c3ccc(C)cc3)C2)CC1 (centres undefined)', 'f'),
  ('CCCn1c(=NC(C)=O)c(C(=O)OCC)cc2c(=O)n3ccccc3nc21', 'f'),
  ('Cc1ccc(NC(=O)c2cc([N+](=O)[O-])ccc2Cl)c(O)c1', 't'),
  ('O=C(Nc1ccc2c(c1)OCO2)C1CC(c2c(F)cccc2Cl)=NO1 (centres undefined)', 'f'),
  ('Cc1ccc(O)c(NC(=O)COc2cc(C)ccc2C)c1', 't'),
  ('COc1ccc(CNC(=O)c2ccc(Br)s2)cc1OC', 'f'),
  ('O=C1c2ccccc2S(=O)(=O)N1Cc1c(F)cccc1Cl', 'f'),
  ('COc1ccc(S(=O)(=O)N2CCN(C(=O)c3cccs3)CC2)cc1OC', 'f'),
  ('Cc1ccc(Cn2c(SCC(=O)N/N=C/c3ccccc3OCC(=O)O)nc3ccccc32)cc1', 'f'),
  ('O=c1oc(-c2ccccc2NS(=O)(=O)c2ccc(Cl)cc2)nc2ccccc12', 'f'),
  ('Cc1cc(C(F)(F)F)nc(SCC(=O)Nc2nccs2)n1', 'f'),
  ('CN(C)c1ccc(-n2cccc2/C=N/n2cnnc2)cc1', 'f'),
  ('O=C(CCCC(=O)N1CCN(c2cccc(Cl)c2)CC1)c1ccccc1', 'f'),
  ('CN(C(=O)COc1nnc(-c2cccs2)c(-c2cccs2)n1)c1ccccc1', 'f'),
  ('CN1CCN(C(=O)CCc2nc(-c3ccc(Cl)cc3)no2)CC1', 'f'),
  ('COc1ccc(OCC(=O)NN2Cc3ccccc3C2=N)cc1', 'f'),
  ('CN(C)CCCn1c(SCCN2C(=O)c3ccccc3C2=O)nc2ccccc2c1=O', 'f'),
  ('COc1ccc(NC(=O)CSc2nc(SC)ns2)c(OC)c1', 'f'),
  ('CCOC(=O)c1cc2c(=O)n3ccccc3nc2n(CC(C)C)c1=NC(=O)c1c(-c2c(F)cccc2Cl)noc1C', 't'),
  ('Cc1onc(-c2c(F)cccc2Cl)c1C(=O)OCC(=O)N1C(C)CCCC1C (centres undefined)', 'f'),
  ('O=C(CNC(=O)Cc1ccccc1)NCC(=O)OCC(=O)c1ccccc1Cl', 'f'),
  ('COc1ccc(CNC(=O)Cc2ccc(-c3ccccc3)cc2)cc1OC', 'f'),
  ('CCOc1ccccc1C1CC(c2ccc(Cl)cc2)Nc2nc(N)nn21 (centres undefined)', 'f'),
  ('COc1ccc(NC(=O)Nc2ccc3c(c2)C(=O)N([C@H](C)CO)C[C@H](C)[C@@H](CN(C)C(=O)Nc2ccc4c(c2)OCO4)O3)cc1', 'f'),
  ('COc1ccccc1OCc1nnc(SCC(N)=O)n1-c1ccccc1', 'f'),
  ('COc1ccc(NC(=O)c2sccc2SCC#N)cc1', 'f'),
  ('CCNC(=O)CCc1nc(-c2ccc(C(C)(C)C)cc2)no1', 't'),
  ('Cc1ccccc1Cn1c2ccccc2c2cnn(CC(=O)NCc3ccco3)c(=O)c21', 'f'),
  ('Cc1ccc(C)c(OCC(=O)NNC(=O)C2CCC2)c1', 'f'),
  ('CNc1ccc([N+](=O)[O-])cc1C(=O)O', 'f'),
  ('CCOC(=O)CSC1=N/C(=C/c2ccc(-n3cncn3)cc2)C(=O)N1C(C)=O', 'f');

Recorded values, source PubChem BioAssay AID435022.
